Sequence of the target: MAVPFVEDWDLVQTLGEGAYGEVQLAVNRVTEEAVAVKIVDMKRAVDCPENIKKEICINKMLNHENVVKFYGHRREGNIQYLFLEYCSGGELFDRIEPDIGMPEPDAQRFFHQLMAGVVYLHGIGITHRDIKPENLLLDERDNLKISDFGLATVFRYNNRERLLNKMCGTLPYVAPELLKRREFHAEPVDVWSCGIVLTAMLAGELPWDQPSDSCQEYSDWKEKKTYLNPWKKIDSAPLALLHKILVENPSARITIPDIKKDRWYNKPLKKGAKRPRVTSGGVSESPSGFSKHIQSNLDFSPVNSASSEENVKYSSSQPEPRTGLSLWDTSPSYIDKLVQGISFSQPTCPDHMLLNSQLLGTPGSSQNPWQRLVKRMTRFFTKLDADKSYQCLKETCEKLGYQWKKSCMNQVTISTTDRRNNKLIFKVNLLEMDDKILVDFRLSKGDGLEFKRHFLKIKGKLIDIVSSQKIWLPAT
pIC50: −log10 of the molar value.

{"Molecule": "Cc1cn(CCN2CCN(c3ccccc3-c3cc(C#N)cc(C(=O)NCCCN4CCCC4)c3)CC2)c2ccccc12 [LLY-507]", "pIC50": "< 4.70"}

---

Tested on: hCSNK1G1 (Homo sapiens)
Sequence (Q9HCP0 whole entry): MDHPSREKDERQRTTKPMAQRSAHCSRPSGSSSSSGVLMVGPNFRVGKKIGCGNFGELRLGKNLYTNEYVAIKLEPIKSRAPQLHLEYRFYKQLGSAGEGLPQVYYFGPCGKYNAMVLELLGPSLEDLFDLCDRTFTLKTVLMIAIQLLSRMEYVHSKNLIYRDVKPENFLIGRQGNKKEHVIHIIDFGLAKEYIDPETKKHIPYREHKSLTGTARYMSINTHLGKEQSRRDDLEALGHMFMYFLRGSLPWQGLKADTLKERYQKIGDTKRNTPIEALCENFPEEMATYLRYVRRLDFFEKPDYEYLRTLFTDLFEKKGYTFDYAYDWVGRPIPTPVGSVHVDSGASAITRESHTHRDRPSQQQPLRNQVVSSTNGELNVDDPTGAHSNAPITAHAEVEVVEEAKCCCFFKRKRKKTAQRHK
pIC50: −log10 of the molar value.
Recorded endpoint: pIC50

{"Compound": "Cc1cn(CCN2CCN(c3ccccc3-c3cc(C#N)cc(C(=O)NCCCN4CCCC4)c3)CC2)c2ccccc12 [LLY-507]", "Recorded endpoint": "pIC50", "Value measured": "< 4.70"}

---

Tested on: bacPKNB (Mycobacterium tuberculosis)
Sequence (P9WI81 whole entry): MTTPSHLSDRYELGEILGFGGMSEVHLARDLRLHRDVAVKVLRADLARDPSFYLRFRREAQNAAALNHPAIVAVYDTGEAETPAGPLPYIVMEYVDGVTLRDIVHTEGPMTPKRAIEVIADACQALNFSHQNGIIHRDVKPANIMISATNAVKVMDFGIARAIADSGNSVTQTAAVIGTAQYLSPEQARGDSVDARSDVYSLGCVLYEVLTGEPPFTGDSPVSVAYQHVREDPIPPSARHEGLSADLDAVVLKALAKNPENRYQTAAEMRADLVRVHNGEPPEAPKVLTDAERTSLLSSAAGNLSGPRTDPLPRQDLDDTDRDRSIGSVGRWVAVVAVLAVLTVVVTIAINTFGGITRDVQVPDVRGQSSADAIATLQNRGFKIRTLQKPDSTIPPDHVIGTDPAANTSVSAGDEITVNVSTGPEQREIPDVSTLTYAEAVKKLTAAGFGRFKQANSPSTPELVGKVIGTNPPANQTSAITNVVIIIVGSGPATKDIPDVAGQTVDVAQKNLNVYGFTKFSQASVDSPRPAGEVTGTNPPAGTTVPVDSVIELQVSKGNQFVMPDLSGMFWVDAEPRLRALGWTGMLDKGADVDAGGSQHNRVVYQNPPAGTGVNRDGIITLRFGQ
pIC50: −log10 of the molar value.

{"Chemical string": "Cc1cn(CCN2CCN(c3ccccc3-c3cc(C#N)cc(C(=O)NCCCN4CCCC4)c3)CC2)c2ccccc12", "pIC50": "< 4.70"}

---

Tested on: hKIT(V559D,V654A) (Homo sapiens, UniProt P10721, V559D/V654A)
Sequence (P10721 26-976 V559D/V654A): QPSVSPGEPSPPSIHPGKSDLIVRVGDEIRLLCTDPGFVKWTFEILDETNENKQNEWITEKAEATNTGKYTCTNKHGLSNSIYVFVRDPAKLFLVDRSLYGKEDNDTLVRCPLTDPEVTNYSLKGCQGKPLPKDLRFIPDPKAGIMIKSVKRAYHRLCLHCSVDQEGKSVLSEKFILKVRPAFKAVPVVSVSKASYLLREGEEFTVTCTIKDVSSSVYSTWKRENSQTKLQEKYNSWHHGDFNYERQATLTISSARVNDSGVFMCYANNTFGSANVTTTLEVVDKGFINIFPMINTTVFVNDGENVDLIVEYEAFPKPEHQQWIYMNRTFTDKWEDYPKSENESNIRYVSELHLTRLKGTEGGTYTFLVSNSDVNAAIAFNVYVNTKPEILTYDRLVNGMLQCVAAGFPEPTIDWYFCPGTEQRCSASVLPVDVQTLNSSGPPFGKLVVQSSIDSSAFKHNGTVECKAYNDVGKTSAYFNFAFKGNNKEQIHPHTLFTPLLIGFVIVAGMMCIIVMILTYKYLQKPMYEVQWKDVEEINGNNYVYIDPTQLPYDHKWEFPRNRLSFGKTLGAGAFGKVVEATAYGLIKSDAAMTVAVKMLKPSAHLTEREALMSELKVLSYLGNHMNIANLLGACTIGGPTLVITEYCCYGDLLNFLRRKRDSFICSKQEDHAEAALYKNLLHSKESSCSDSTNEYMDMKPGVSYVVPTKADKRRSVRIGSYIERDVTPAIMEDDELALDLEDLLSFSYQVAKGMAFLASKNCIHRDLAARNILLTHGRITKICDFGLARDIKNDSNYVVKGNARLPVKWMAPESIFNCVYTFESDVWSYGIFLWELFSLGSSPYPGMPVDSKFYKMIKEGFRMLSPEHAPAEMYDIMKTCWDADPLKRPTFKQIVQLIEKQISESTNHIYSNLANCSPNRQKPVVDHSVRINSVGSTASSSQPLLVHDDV
Method description: KINOMEscan
pIC50: −log10 of the molar value.
Recorded endpoint: pIC50

{"Chemical string": "Cc1cn(CCN2CCN(c3ccccc3-c3cc(C#N)cc(C(=O)NCCCN4CCCC4)c3)CC2)c2ccccc12", "Tested on": "hKIT(V559D,V654A) (Homo sapiens, UniProt P10721, V559D/V654A)", "Value measured": "< 4.70"}

---

Tested on: hDYRK1A (Homo sapiens, UniProt Q13627)
pIC50: −log10 of the molar value.

{"Chemical string": "Cc1cn(CCN2CCN(c3ccccc3-c3cc(C#N)cc(C(=O)NCCCN4CCCC4)c3)CC2)c2ccccc12", "pIC50": "< 4.70"}

---

Tested on: hTYK2(JH1Dom.-catalytic) (Homo sapiens)
Sequence (P29597 897-1176 limits assumed): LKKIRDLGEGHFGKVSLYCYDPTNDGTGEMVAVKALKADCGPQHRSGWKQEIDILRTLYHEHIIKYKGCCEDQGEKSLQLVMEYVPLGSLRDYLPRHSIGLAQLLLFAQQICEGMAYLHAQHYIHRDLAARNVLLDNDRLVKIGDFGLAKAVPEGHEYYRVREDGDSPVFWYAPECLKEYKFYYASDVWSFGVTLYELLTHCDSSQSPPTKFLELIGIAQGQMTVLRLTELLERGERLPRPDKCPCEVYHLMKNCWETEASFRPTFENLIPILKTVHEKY

{"Chemical string": "Cc1cn(CCN2CCN(c3ccccc3-c3cc(C#N)cc(C(=O)NCCCN4CCCC4)c3)CC2)c2ccccc12", "IC50": "> 20 µM"}

---

Sequence of the target: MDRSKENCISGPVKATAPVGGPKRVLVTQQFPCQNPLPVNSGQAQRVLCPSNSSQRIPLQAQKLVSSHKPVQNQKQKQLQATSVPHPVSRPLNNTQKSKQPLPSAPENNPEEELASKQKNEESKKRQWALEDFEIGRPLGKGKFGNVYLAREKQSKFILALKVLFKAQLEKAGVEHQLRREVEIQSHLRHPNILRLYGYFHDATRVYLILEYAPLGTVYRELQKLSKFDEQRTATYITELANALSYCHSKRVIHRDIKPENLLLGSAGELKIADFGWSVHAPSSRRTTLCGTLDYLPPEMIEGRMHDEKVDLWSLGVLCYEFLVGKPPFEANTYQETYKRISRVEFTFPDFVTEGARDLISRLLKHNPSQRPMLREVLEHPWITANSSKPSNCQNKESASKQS
pIC50: −log10 of the molar value.
Recorded endpoint: pIC50

{"Chemical string": "Cc1cn(CCN2CCN(c3ccccc3-c3cc(C#N)cc(C(=O)NCCCN4CCCC4)c3)CC2)c2ccccc12", "Recorded endpoint": "pIC50", "Value measured": "< 4.70"}
